Every entry's value here was drawn from paper PMC3950713.

System: T1, HpDprA full-length (Helicobacter pylori 26695, UniProt O25100 1-270)
T1 sequence: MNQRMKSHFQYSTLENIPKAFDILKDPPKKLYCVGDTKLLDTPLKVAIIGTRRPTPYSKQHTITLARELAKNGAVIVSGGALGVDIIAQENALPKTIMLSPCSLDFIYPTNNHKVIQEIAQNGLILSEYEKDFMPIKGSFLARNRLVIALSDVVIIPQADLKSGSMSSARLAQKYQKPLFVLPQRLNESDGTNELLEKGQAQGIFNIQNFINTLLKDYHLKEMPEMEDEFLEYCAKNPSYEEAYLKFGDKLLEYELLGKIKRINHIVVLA
Assay name: MST
Recorded metric: pKd
Would you please state pKd, meaning minus log10 of the concentration in mol/L, as a bare number?

Prompt: Reported pKd, binder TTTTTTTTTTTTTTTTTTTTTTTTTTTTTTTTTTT (ssDNA) [dT35] : ____
Completion: 8.65
